# Tested on: SK-BR-3 cancer cells
# Assay details: Inhibitory activity against proliferation of SK-BR-3 cancer cells (CellTiter-Glo)
# Assay type: cell-based
# Experimental context: Homo sapiens, SK-BR-3, 120 h, ErbB2-overexpressing SK-BR-3 cells, 120 hours after treatment
Test readout: GI50

>>> df
                                   molecule  test_readout        result
0  C=CC(=O)Nc1cc(Nc2cc(N3OCC[C@@H]3c3cccc(C(=O)OC4CCCCC4)c3)ncn2)c(OC)cc1N1CCC(N2CCN(C3CC3)CC2)CC1          GI50  50 to 500 nM

Give reported GI50 for C=CC(=O)Nc1cc(Nc2cc(N3OCCC3c3ccc(F)c(OCc4cccc(F)c4)c3)ncn2)c(OC)cc1N1CCC(N2CCN(C3CC3)CC2)CC1 (stereo not drawn) (SK-BR-3 cancer cells) < 50 nM

Determine reported GI50 for "C=CC(=O)Nc1cc(Nc2cc(N3OCC[C@@H]3c3cc(F)cc(-c4cccnc4)c3)ncn2)c(OC)cc1N(C)CCN(C)C" ; test system: SK-BR-3 cancer cells. < 50 nM

With SK-BR-3 cancer cells as the test system, provide measured GI50 for this molecule: "C=CC(=O)Nc1cc(Nc2cc(N3OCC[C@@H]3c3ccc(F)c(Oc4cccc(C(F)(F)F)c4)c3)ncn2)c(OC)cc1N1CCN(C)CC1" 50 to 500 nM

Under SK-BR-3 cancer cells: report GI50 of "C=CC(=O)Nc1cc(Nc2cc(N3OCC[C@@H]3c3cccc(-c4cc(F)cc(F)c4)c3)ncn2)c(OC)cc1N(C)CCN(C)C" . < 50 nM

Write GI50 of "C=CC(=O)Nc1cc(Nc2cc(N3OCC[C@@H]3c3cccc(-c4cc(F)cc(F)c4)c3)ncn2)c(OC)cc1N1CCN(C(C)=O)CC1" ; system used: SK-BR-3 cancer cells < 50 nM
